system_tested: T1, human fXa (Homo sapiens, UniProt P00742)
T1 construct: Human coagulation factors IIa (thrombin), Xa, XIa, XIIa, EGR-fXa; purchased Haematologic Technologies Inc (United States)
experimental_details: Chromogenic assay, fXa
Format: biochemical
experimental_context: 200 nM
Text: The recombinant anticoagulant polypeptides in the present invention were expressed in E. coli and purified in our laboratory, of which the activities against coagulation factors were investigated by chromogenic assays. Human coagulation factors IIa (thrombin), Xa, XIa, XIIa, EGR-fXa were products of Haematologic Technologies Inc (United States). Recombinant fVIIa was products of Novo-Nordisk (Denmark). Recombinant soluble tissue factor (sTF) was purchased from Protgen (Beijing, China). […]
experimental_endpoint: effect on fXa activity (in words)

Take a look at these entries with their results.
[[record]]
molecule = "NAPTin-2 (protein, Sequence derived from Ancylostoma caninum or Synthetic) NPSCGENERHDECSRKECDPKCKYDGTEEKDDEKPVVCLTRVCYGDCICRDGFLRNKNGACVKAEDCELDN"
experimental_endpoint = "effect on fXa activity (in words)"
measurement = "without affecting"

[[record]]
molecule = "NAPTin-4 (protein, Sequence derived from Ancylostoma caninum or Synthetic) NPSCGENERHDECSRKECDPKCKYDGTEEKDDEKPVVCLTRVCYGDCICRDGFLRNKNGACVKAEDCELDNME"
experimental_endpoint = "effect on fXa activity (in words)"
measurement = "without affecting"

[[record]]
molecule = "NAPTin-1 (protein, Sequence derived from Ancylostoma caninum or Synthetic) NPSCGENERHDECSRKECDPKCKYDGTEEKDDEKPVVCLTRVCYGDCICRDGFLRNKNGACVKAEDCELD"
experimental_endpoint = "effect on fXa activity (in words)"
measurement = "without affecting"

[[record]]
molecule = "NAPTin-3 (protein, Sequence derived from Ancylostoma caninum or Synthetic) NPSCGENERHDECSRKECDPKCKYDGTEEKDDEKPVVCLTRVCYGDCICRDGFLRNKNGACVKAEDCELDNM"
experimental_endpoint = "effect on fXa activity (in words)"
measurement = "without affecting"

[[record]]
molecule = "NAPTin-6 (protein, Sequence derived from Ancylostoma caninum or Synthetic) NPSCGENERHDECSRKECDPKCKYDGTEEKDDEKPVVCLTRVCYGDCICRDGFLRNKNGACVKAEDCE"
experimental_endpoint = "effect on fXa activity (in words)"
measurement = "without affecting"


State the recorded effect on fXa activity (in words) for this entry: NAPTin-7 (protein, Sequence derived from Ancylostoma caninum or Synthetic) NPSCGENERHDECSRKECDPKCKYDGTEEKDDEKPVVCLTRVCYGDCICRDGFLRNKNGACVKAEDC
without affecting

State the recorded effect on fXa activity (in words) for this entry: NAPTin-5 (protein, Sequence derived from Ancylostoma caninum or Synthetic) NPSCGENERHDECSRKECDPKCKYDGTEEKDDEKPVVCLTRVCYGDCICRDGFLRNKNGACVKAEDCEL
without affecting
